# Test system: CAKI-1 renal
# Measurement Notes: NCI tumour cell line growth inhibition, 48 h
So I've got a bunch of molecules here, and I need their GI50 values.

Query block: I have this molecule here, `COc1ccc(CN2CCc3c(Sc4ccccc4)nc(N)nc3C2=O)c(OC)c1` , and I need its recorded GI50.
Result block: 3400 nM

Query block: Reported GI50, molecule `C=CCOC1=CC(=O)c2ccccc2C1=O` : ____
Result block: 15800 nM

Query block: Recorded GI50 of C=C(C)[C@@H]1C/C=C(\COC(=O)[C@H](OC(C)=O)C(NC(=O)c2ccccc2)c2ccccc2)CC[C@H]2O[C@]2(C)CC/C=C(\C)CC1 (stereo partly specified) , please.
Result block: 8640 nM

Query block: For `COc1ccc(/C=C2\CS(=O)(=O)C/C(=C\c3ccc(OC)cc3)C2=O)cc1` , what is its reported GI50?
Result block: 2160 nM

Query block: Which value of GI50 has been reported for `Cc1ccc(NS(=O)(=O)c2ccc(-c3cnc(C4CC4)o3)cc2)cc1C` in the records?
Result block: 385 nM

Query block: Find the recorded GI50 belonging to `COC(=O)c1c2c(c(C)[n+]([O-])c1C)C(=O)C(NCc1cccc(Cl)c1)=CC2=O` and report it.
Result block: 1970 nM

Query block: For the molecule shown here, `O[C@H]1C=C2[C@H](C[C@@H]1O)CN1C[C@H]2c2cc3c(cc21)OCO3` , give the reported GI50.
Result block: 23500 nM

Query block: So what does the record say about GI50 for `CC[C@@]1(O)C(=O)OCc2c1cc1n(c2=O)Cc2cc3c([N+](=O)[O-])c(OC)ccc3nc2-1` ?
Result block: 17.2 nM

Query block: Entry `CNCCCNc1c2cc(OC)ccc2nc2cccc([N+](=O)[O-])c12` : reported GI50 = ?
Result block: 30.6 nM

Query block: Quick one: GI50 for CC1=C(C(=O)Nc2ccc(Cl)c(Cl)c2)C(c2ccccc2Cl)NC(=S)N1 (stereo unspecified) ?
Result block: 9850 nM

Query block: Need GI50 of `O=C(Nc1cccc(-n2cc(-c3ccncc3)c(-c3ccc(Cl)c(O)c3)n2)c1)Nc1cccc(C(F)(F)F)c1` , thanks.
Result block: 1750 nM
